# MEASUREMENT_NOTES: Pharmacokinetics in brain tissue after a single oral dose (HPLC-MS/MS)
# Format: in vivo, CD1 IGS mice
# CONDITION_SET: CD1 IGS, mouse; brain, single oral 10 mg/kg
MEASURE_NAME: half-life

Record C=C(C)[C@@H]1CC=C(C)[C@@H](Sc2nc[nH]n2)[C@@H]1O . Reported half-life: 18.8 min

----------
# MEASUREMENT_NOTES: Pharmacokinetics in brain tissue after a single oral dose (HPLC-MS/MS)
# Type: in vivo, CD1 IGS mice
# CONDITION_SET: CD1 IGS, mouse, brain and whole blood; single oral 10 mg/kg; read-out: Kb,brain (brain-to-blood coefficient, AUCbrain/AUCblood)
MEASURE_NAME: Kp

Entry C=C(C)[C@@H]1CC=C(C)[C@@H](Sc2nc[nH]n2)[C@@H]1O — recorded Kp = 0.119
